The reported measurements were obtained from ChEMBL document CHEMBL4411344.

- assayInfo: Selectivity index, ratio of IC50 for African green monkey Vero cells to IC50 for Trypanosoma cruzi IRHOD/CO/2008/SN3 DTU 1 epimastigotes
- Format: toxicity
- condition: read-out: Ratio IC50
measuredProperty: selectivity ratio
Lab note: jot the number down without any unit.

Known results for compounds:
- molecule: "CCCCCCCCCCCCOc1c(N(C)CCCN(C)C)c(=O)c1=O"
  selectivity ratio: 15
- molecule: "CCCCCCNc1c(N(C)CCCN(C)C)c(=O)c1=O"
  selectivity ratio: 63
- molecule: "CCCCCCCCCCCCCCCCNc1c(N(C)CCCN(C)C)c(=O)c1=O"
  selectivity ratio: 42.5

For "CCCCCCCCNc1c(N(C)CCCN(C)C)c(=O)c1=O" the compound record lists selectivity ratio as 13.2

For "CN(C)CCCN(C)c1c(N)c(=O)c1=O" the compound record lists selectivity ratio as 31.8

For "CCCCCCCCCCCCNc1c(N(C)CCCN(C)C)c(=O)c1=O" the compound record lists selectivity ratio as 3.4

For "CCCCCCCCCCCC[N+](C)(C)CCCN(C)c1c(O)c(=O)c1=O" the compound record lists selectivity ratio as 4.8

For "CCCCCCCCCCCC[N+](C)(C)CCCN(C)c1c(OCC)c(=O)c1=O" the compound record lists selectivity ratio as 4.7

For "CCCCCCCCCCCCCCCCOP(=O)([O-])OCC[N+](C)(C)C" the compound record lists selectivity ratio as 0.4

For "CN(C)CCCN(C)c1c(N(C)CCCN(C)C)c(=O)c1=O" the compound record lists selectivity ratio as 2.8

For "CN(C)CCCN(C)c1c(NCCCN(C)CCCNc2c(N(C)CCCN(C)C)c(=O)c2=O)c(=O)c1=O" the compound record lists selectivity ratio as 7

For "CCNc1c(N(C)CCCN(C)C)c(=O)c1=O" the compound record lists selectivity ratio as 22

For "CCCCNc1c(N(C)CCCN(C)C)c(=O)c1=O" the compound record lists selectivity ratio as 28.9

----------
- assayInfo: Nephrotoxicity in Balb/c mouse infected with Trypanosoma cruzi MHOM/Pe/2011/Arequipa DTU 5 trypomastigotes assessed as decrease in serum urea level at 20 mg/kg, po once daily for 5 consecutive days starting from day 75 post infection measured on day 127 post infection relative to control
- Format: toxicity, organism-based
- condition: in vivo
Property: Activity; scope: individual compounds

- molecule: "CCCCCCNc1c(N(C)CCCN(C)C)c(=O)c1=O"
  Activity: "10 to 20 mg/dL"

For "CCCCCCCCCCCCCCCCNc1c(N(C)CCCN(C)C)c(=O)c1=O" the compound record lists Activity as 10 to 20 mg/dL

For "O=C(Cn1ccnc1[N+](=O)[O-])NCc1ccccc1" the compound record lists Activity as 20 to 30 mg/dL

----------
- assayInfo: Hepatotoxicity in Balb/c mouse infected with Trypanosoma cruzi MHOM/Pe/2011/Arequipa DTU 5 trypomastigotes assessed as increase in total bilirubin level at 20 mg/kg, po once daily for 5 consecutive days starting from day 10 post infection measured on day 127 post infection by biochemical analysis relative to control
- Type: toxicity, organism-based
- condition: in vivo
measuredProperty: Activity (%)
Report the value in % with no unit label.

For O=C(Cn1ccnc1[N+](=O)[O-])NCc1ccccc1 [BENZNIDAZOLE] the molecule record lists Activity as 10

----------
- assayInfo: Nephrotoxicity in Balb/c mouse infected with Trypanosoma cruzi MHOM/Pe/2011/Arequipa DTU 5 trypomastigotes assessed as decrease in serum urea level at 20 mg/kg, po once daily for 5 consecutive days starting from day 10 post infection measured on day 127 post infection relative to control
- Assay type: toxicity, organism-based
- condition: in vivo
measuredProperty: Activity

- compound: "CCCCCCCCCCCCCCCCNc1c(N(C)CCCN(C)C)c(=O)c1=O"
  result: "10 to 20 mg/dL"
- compound: "CCCCCCNc1c(N(C)CCCN(C)C)c(=O)c1=O"
  result: "10 to 20 mg/dL"

For O=C(Cn1ccnc1[N+](=O)[O-])NCc1ccccc1 [BENZNIDAZOLE] the compound record lists Activity as 20 to 30 mg/dL

----------
- System: Trypanosoma cruzi
- assayInfo: Trypanocidal activity against Trypanosoma cruzi IRHOD/CO/2008/SN3 DTU 1 amastigotes infected in African green monkey Vero cells after 72 hrs by Giemsa-staining based microscopic assay
- Format: functional, organism-based
- condition: IRHOD/CO/2008/SN3 DTU 1, Vero
measuredProperty: IC50 (µM)
Report the value in µM with no unit label.

Known results for compounds:
- molecule: "CCCCCCCCCCCCOc1c(N(C)CCCN(C)C)c(=O)c1=O"
  measuredProperty: "IC50"
  number: 28.4
- molecule: "CCCCCCNc1c(N(C)CCCN(C)C)c(=O)c1=O"
  measuredProperty: "IC50"
  number: 50
- molecule: "CCCCCCCCCCCCCCCCNc1c(N(C)CCCN(C)C)c(=O)c1=O"
  measuredProperty: "IC50"
  number: 18.9
- molecule: "CCCCNc1c(N(C)CCCN(C)C)c(=O)c1=O"
  measuredProperty: "IC50"
  number: 13.1
- molecule: "CN(C)CCCN(C)c1c(N)c(=O)c1=O"
  measuredProperty: "IC50"
  number: 62.6

For "CCCCCCCCCCCCCCCCOP(=O)([O-])OCC[N+](C)(C)C" the compound record lists IC50 as 39.7

For "CCNc1c(N(C)CCCN(C)C)c(=O)c1=O" the compound record lists IC50 as 54.5

----------
Property: selectivity ratio; scope: individual compounds
- assayInfo: Selectivity index, ratio of IC50 for African green monkey Vero cells to IC50 for Trypanosoma cruzi IRHOD/CO/2008/SN3 DTU 1 amastigotes infected in African green monkey Vero cells
- Assay type: toxicity
- condition: read-out: Ratio IC50
Lab note: jot the number down without any unit.

Known results for compounds:
- molecule: "CCCCCCCCCCCCCCCCOP(=O)([O-])OCC[N+](C)(C)C"
  selectivity ratio: 0.5
- molecule: "CCNc1c(N(C)CCCN(C)C)c(=O)c1=O"
  selectivity ratio: 16.5
- molecule: "CCCCCCNc1c(N(C)CCCN(C)C)c(=O)c1=O"
  selectivity ratio: 18
- molecule: "CCCCCCCCCCCCOc1c(N(C)CCCN(C)C)c(=O)c1=O"
  selectivity ratio: 10.3
- molecule: "CCCCNc1c(N(C)CCCN(C)C)c(=O)c1=O"
  selectivity ratio: 33.5
- molecule: "CN(C)CCCN(C)c1c(N)c(=O)c1=O"
  selectivity ratio: 17.1

Switching to the query record.
For "CCCCCCCCCCCCCCCCNc1c(N(C)CCCN(C)C)c(=O)c1=O" the compound record lists selectivity ratio as 35.9

----------
- assayInfo: Cardiotoxicity in Balb/c mouse infected with Trypanosoma cruzi MHOM/Pe/2011/Arequipa DTU 5 trypomastigotes assessed as decrease in serum LDH level at 20 mg/kg, po once daily for 5 consecutive days starting from day 75 post infection measured on day 81 post infection relative to control
- Assay type: toxicity, organism-based
- condition: in vivo
measuredProperty: Activity

For "O=C(Cn1ccnc1[N+](=O)[O-])NCc1ccccc1" the compound record lists Activity as 20 to 30 U/L

----------
- assayTarget: Superoxide dismutase [Cu-Zn] (Homo sapiens)
- Sequence (P00441 whole entry): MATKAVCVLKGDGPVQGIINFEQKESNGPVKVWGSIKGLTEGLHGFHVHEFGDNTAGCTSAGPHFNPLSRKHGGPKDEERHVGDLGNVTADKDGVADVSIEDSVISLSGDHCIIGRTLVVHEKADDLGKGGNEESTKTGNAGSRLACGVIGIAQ
Property: IC50; scope: individual compounds

- molecule: "CCCCCCCCCCCCCCCCNc1c(N(C)CCCN(C)C)c(=O)c1=O"
  IC50: "> 100 µM"

Switching to the query record.
The recorded IC50 with Superoxide dismutase [Cu-Zn] (Homo sapiens) for "CCCCCCNc1c(N(C)CCCN(C)C)c(=O)c1=O" was > 100 µM

----------
- System: Trypanosoma cruzi
- assayInfo: Trypanocidal activity against Trypanosoma cruzi IRHOD/CO/2008/SN3 DTU 1 trypomastigotes derived from infected Balb/c mouse after 72 hrs by resazurin dye based assay
- Type: functional, organism-based
- condition: IRHOD/CO/2008/SN3 DTU 1, 72 h
measuredProperty: IC50 (µM)
Report the value in µM with no unit label.

- molecule: "CCCCCCNc1c(N(C)CCCN(C)C)c(=O)c1=O"
  unitSpec: "µM"
  IC50: 15.8
- molecule: "CCCCCCCCCCCCOc1c(N(C)CCCN(C)C)c(=O)c1=O"
  unitSpec: "µM"
  IC50: 24.1

For "CCCCCCCCCCCCCCCCNc1c(N(C)CCCN(C)C)c(=O)c1=O" the compound record lists IC50 as 5.4

For "CCCCCCCCCCCCCCCCOP(=O)([O-])OCC[N+](C)(C)C" the compound record lists IC50 as 34.8

For "CN(C)CCCN(C)c1c(N)c(=O)c1=O" the compound record lists IC50 as 30.2

For "CCNc1c(N(C)CCCN(C)C)c(=O)c1=O" the compound record lists IC50 as 28

For "CCCCNc1c(N(C)CCCN(C)C)c(=O)c1=O" the compound record lists IC50 as 7.5

----------
- assayInfo: Hepatotoxicity in Balb/c mouse infected with Trypanosoma cruzi MHOM/Pe/2011/Arequipa DTU 5 trypomastigotes assessed as increase in ratio of serum AST to GOT level at 20 mg/kg, po once daily for 5 consecutive days starting from day 75 post infection measured on day 81 post infection relative to control
- Type: toxicity, organism-based
- condition: in vivo
Property: Activity; scope: individual compounds

Known results for compounds:
- compound: "O=C(Cn1ccnc1[N+](=O)[O-])NCc1ccccc1 [BENZNIDAZOLE]"
  result: "20 to 30 U/L"
- compound: "CCCCCCCCCCCCCCCCNc1c(N(C)CCCN(C)C)c(=O)c1=O"
  result: "10 to 20 U/L"

For "CCCCCCNc1c(N(C)CCCN(C)C)c(=O)c1=O" the compound record lists Activity as 10 to 20 U/L
